tgt: T1, human GPC3-His protein (human, UniProt P51654 25-559)
T1 construct: also called human GPC3 protein; not shown: His tag
protocol-notes: SPR, antibody captured on Protein A chip, human GPC3-His analyte;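 further: measured at 25 °C flow cell, human GPC3-His injected at five concentrations up to 200 nM, 240 s association, up to 600 s dissociation, double-referenced, fitted to Langmuir 1:1 model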
# rule met = Kd below 5 nM (exclusive); rule not met = Kd at/above 5 nM

# strict comparison: is reported Kd < 5 nM? input = F1.21.8 (antibody, human IgG1, kappa, V domains shown, Human-murine chimeric antibody) VH: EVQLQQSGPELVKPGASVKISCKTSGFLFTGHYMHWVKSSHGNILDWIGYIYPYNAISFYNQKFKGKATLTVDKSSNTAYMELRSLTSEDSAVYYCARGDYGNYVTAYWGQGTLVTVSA VL: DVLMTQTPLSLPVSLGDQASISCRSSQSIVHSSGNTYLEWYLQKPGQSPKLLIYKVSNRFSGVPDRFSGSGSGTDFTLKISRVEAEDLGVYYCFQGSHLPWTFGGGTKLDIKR
rule met

# strict comparison: is reported Kd < 5 nM? input = F4.13.7 (antibody, human IgG1, kappa, V domains shown, Human-murine chimeric antibody) VH: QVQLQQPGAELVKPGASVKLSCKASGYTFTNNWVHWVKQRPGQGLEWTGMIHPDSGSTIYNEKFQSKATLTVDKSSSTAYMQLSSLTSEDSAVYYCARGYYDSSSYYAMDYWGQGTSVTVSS VL: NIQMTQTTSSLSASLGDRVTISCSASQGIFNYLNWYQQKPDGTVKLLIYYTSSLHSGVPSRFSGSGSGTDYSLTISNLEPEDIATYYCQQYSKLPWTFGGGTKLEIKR
rule not met

# strict comparison: is reported Kd < 5 nM? input = F1.111.11 (antibody, human IgG1, kappa, V domains shown, Human-murine chimeric antibody) VH: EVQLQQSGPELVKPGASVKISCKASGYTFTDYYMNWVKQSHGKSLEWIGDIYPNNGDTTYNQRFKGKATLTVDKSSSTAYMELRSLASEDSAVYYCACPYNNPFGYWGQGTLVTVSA VL: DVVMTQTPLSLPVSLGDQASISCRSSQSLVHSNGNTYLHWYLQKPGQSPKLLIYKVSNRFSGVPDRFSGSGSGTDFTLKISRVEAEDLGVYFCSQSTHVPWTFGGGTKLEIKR
rule not met

# strict comparison: is reported Kd < 5 nM? input = F3.38.7 (antibody, human IgG1, kappa, V domains shown, Human-murine chimeric antibody) VH: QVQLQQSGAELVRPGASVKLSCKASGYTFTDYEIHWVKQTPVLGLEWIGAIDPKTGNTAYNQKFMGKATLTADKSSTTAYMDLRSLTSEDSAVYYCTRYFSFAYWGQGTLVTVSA VL: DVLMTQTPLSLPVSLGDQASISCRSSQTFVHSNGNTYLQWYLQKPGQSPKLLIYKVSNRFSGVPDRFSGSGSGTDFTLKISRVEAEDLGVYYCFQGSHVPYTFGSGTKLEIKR
rule met

# strict comparison: is reported Kd < 5 nM? input = F2.39.2 (antibody, human IgG1, kappa, V domains shown, Human-murine chimeric antibody) VH: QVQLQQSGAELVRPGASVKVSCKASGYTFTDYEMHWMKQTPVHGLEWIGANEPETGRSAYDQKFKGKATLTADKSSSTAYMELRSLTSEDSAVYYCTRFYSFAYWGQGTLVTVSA VL: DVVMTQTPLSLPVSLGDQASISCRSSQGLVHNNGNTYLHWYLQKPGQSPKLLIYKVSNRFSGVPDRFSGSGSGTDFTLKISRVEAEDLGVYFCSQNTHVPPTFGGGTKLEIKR
rule not met

More entries:
# strict comparison: is reported Kd < 5 nM? input = F2.154.1 (antibody, human IgG1, kappa, V domains shown, Human-murine chimeric antibody) VH: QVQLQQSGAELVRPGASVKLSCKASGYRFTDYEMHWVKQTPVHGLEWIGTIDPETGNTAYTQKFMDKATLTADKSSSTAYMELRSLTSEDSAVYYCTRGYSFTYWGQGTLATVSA VL: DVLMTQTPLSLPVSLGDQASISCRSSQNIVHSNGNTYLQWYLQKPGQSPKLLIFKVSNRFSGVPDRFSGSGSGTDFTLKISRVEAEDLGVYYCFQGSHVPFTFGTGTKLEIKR
rule met

# strict comparison: is reported Kd < 5 nM? input = F2.55.11 (antibody, human IgG1, kappa, V domains shown, Human-murine chimeric antibody) VH: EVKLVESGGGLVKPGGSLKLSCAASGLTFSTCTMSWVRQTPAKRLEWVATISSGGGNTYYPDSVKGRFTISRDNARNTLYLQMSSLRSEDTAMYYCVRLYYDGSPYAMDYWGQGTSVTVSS VL: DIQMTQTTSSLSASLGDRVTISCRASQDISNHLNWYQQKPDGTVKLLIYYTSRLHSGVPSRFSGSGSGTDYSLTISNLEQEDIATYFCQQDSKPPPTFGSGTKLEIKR
rule not met

# strict comparison: is reported Kd < 5 nM? input = F2.23.8 (antibody, human IgG1, kappa, V domains shown, Human-murine chimeric antibody) VH: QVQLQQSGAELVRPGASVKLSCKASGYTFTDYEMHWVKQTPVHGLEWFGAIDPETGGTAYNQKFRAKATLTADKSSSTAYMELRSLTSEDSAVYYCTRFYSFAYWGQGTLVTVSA VL: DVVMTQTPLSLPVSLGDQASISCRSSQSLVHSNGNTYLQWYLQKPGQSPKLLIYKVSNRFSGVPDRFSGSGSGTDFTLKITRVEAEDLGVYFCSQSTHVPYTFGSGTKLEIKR
rule not met

# strict comparison: is reported Kd < 5 nM? input = F1.57.21 (antibody, human IgG1, kappa, V domains shown, Human-murine chimeric antibody) VH: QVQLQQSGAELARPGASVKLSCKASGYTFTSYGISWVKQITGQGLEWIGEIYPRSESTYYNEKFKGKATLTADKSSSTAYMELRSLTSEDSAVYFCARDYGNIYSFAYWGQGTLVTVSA VL: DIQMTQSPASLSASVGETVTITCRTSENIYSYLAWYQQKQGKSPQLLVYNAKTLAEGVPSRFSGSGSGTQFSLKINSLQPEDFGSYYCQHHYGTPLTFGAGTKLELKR
rule not met
